# Test system: adjuvant-associated biological themes in LV, SP, LN
# experimental_context: LV, ID
# Description: A defined sets of genes were selected according to specified criteria (e.g., FC, PA-call, threshold values). […] Whole organ transcriptome data for each organ from each mouse were analyzed as follows to obtain biological themes for individual samples from each adjuvant-administered group of three mice. […] Next, the biological themes called by all the individual samples in the group were scored as follows. […]
Overview of recorded GO annotation: regulation of cytokine biosynthetic process (Term: cytokine) for various molecules
quantity_measured: GO annotation: regulation of cytokine biosynthetic process (Term: cytokine)

molecule	result
Nc1nc2c(ncn2[C@@H]2O[C@@H]3COP(=O)(O)O[C@H]4[C@@H](O)[C@H](n5cnc6c(=O)[nH]c(N)nc65)O[C@@H]4COP(=O)(O)O[C@H]3[C@H]2O)c(=O)[nH]1 [cdiGMP, Cyclic diguanylate monophosphate]	3.81
Nc1nc2c(ncn2[C@@H]2O[C@@H]3COP(=O)(O)O[C@H]4[C@@H](O)[C@H](n5cnc6c(N)ncnc65)O[C@@H]4COP(=O)(O)O[C@@H]2[C@@H]3O)c(=O)[nH]1 [cGAMP, Cyclic [G(2′,5′)pA(3′,5′)p]]	0
Cc1ccc2c(=O)c3cccc(CC(=O)O)c3oc2c1C	0
CC(O)COC[C@H]1O[C@@H]2O[C@H]3[C@H](O)[C@@H](O)[C@@H](O[C@H]4[C@H](O)[C@@H](O)[C@@H](O[C@H]5[C@H](O)[C@@H](O)[C@@H](O[C@H]6[C@H](O)[C@@H](O)[C@@H](O[C@H]7[C@H](O)[C@@H](O)[C@@H](O[C@H]8[C@H](O)[C@@H](O)[C@@H](O[C@H]1[C@H](O)[C@H]2O)O[C@@H]8COCC(C)O)O[C@@H]7COCC(C)O)O[C@@H]6COCC(C)O)O[C@@H]5COCC(C)O)O[C@@H]4COCC(C)O)O[C@@H]3COCC(C)O (stereo partly drawn) [bCD, Hydroxypropyl-beta-cyclodextrin]	0
